Data credit: patent EP4722213A1

- assay.system: SOS1 (Homo sapiens)
- Sequence (Q07889 1-1333): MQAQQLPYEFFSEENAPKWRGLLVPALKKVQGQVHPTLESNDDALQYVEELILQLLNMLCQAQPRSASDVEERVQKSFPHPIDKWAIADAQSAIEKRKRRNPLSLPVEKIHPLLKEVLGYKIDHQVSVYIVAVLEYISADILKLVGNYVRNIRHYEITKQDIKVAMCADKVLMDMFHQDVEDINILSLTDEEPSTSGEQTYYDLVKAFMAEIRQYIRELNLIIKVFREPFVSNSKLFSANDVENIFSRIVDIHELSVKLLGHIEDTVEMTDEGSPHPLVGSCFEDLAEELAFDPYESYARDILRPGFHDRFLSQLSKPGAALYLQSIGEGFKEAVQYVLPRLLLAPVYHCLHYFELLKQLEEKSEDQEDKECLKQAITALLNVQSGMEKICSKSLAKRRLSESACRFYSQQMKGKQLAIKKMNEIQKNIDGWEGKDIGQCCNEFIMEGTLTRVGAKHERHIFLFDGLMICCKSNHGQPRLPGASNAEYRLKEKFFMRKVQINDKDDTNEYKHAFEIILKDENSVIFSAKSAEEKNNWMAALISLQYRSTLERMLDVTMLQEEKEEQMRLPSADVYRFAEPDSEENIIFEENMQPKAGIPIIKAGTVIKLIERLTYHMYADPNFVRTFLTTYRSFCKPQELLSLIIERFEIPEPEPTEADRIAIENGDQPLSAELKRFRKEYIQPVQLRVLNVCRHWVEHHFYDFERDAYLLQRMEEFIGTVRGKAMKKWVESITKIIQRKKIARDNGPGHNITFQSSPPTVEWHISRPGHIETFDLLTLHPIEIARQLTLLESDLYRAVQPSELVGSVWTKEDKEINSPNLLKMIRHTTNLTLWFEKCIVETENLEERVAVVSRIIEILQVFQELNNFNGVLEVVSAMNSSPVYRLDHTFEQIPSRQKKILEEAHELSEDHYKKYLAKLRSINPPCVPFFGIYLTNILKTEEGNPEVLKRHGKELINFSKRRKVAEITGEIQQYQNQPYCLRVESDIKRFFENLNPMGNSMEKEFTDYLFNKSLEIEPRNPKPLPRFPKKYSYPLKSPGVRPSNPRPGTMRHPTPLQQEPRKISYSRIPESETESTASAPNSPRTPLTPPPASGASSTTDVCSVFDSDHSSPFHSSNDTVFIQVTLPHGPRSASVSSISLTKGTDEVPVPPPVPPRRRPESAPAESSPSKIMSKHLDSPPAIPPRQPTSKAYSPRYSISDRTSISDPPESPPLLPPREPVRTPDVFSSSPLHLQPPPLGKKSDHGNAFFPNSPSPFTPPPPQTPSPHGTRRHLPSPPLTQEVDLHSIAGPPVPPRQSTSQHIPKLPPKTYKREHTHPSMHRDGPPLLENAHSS
pIC50: −log10 of the molar value. Where a name gives a salt, the structure may show the parent alone.
Give Met when the value for pIC50 is at least 8. Give Not met when it is less.

{"compound": "C[C@@H](Nc1nnc(NC2CCN(C)CC2)c2cc(=O)n(C3(C)CC3)cc12)c1cccc(C(F)F)c1F [Example 123, formate]", "assay.system": "SOS1 (Homo sapiens)", "label.value": "Met"}
{"compound": "C[C@@H](Nc1nnc(-n2cccn2)c2cc(=O)n(C3CC3)cc12)c1cccc(C(F)F)c1F", "assay.system": "SOS1 (Homo sapiens)", "label.value": "Not met"}
{"compound": "C[C@@H](Nc1nnc(N2CCN(CC3CC3)CC2)c2cc(=O)n(C3CC(F)(F)C3)cc12)c1cccc(C(F)F)c1F", "assay.system": "SOS1 (Homo sapiens)", "label.value": "Met"}
{"compound": "CC(C)N1CCN(c2nnc(N[C@H](C)c3cccc(C(F)F)c3F)c3cn(N4CCOCC4)c(=O)cc23)CC1", "assay.system": "SOS1 (Homo sapiens)", "label.value": "Met"}
{"compound": "Cc1c(C#N)cccc1[C@@H](C)Nc1nnc(N2CCN(C)CC2)c2cc(=O)n(C3CC3)cc12", "assay.system": "SOS1 (Homo sapiens)", "label.value": "Met"}

* * *

# IC50 values compiled below
- assay.system: SOS1 (Homo sapiens, UniProt Q07889)
- Sequence (Q07889 1-1333): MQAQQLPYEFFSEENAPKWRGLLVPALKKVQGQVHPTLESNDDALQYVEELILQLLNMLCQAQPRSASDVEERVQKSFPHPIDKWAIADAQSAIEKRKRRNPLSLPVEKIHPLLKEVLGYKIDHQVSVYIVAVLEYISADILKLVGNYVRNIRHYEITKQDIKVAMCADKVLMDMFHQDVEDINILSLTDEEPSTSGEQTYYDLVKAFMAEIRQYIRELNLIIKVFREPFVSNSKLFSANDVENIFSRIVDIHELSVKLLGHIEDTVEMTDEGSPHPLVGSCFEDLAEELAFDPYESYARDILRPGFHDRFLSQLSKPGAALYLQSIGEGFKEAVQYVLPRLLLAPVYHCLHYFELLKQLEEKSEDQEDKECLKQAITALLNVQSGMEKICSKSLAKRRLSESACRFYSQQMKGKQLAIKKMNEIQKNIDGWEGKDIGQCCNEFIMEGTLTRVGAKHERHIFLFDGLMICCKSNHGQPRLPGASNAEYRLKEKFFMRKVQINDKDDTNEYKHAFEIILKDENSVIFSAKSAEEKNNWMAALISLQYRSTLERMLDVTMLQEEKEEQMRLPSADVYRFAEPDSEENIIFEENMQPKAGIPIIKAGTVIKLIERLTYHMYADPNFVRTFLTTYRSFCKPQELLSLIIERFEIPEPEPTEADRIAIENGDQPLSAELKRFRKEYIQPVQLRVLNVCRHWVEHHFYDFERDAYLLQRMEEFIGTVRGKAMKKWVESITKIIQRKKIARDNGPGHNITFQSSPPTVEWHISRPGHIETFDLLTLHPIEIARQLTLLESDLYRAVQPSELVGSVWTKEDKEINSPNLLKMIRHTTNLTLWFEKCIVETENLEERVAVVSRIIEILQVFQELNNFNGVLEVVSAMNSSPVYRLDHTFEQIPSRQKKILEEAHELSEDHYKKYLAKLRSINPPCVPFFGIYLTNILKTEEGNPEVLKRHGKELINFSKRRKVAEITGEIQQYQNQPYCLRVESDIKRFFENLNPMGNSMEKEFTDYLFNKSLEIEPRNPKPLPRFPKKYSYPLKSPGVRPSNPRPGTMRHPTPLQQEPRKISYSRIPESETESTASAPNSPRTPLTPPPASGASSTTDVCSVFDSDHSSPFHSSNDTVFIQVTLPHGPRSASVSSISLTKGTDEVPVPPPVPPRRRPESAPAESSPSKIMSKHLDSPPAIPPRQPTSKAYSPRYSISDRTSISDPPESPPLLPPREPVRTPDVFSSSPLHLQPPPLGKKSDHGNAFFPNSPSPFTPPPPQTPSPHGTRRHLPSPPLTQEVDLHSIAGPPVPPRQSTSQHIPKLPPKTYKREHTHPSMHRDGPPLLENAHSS
Counter-ions that a name gives are not always drawn.

{"compound": "C[C@@H](Nc1nnc(N2CCCC2)c2cc(=O)n(C3CC3)cc12)c1cccc(C(F)F)c1F", "IC50, nM": 4.9}
{"compound": "Cc1c(C#N)cccc1[C@@H](C)Nc1nnc(N2CCC(F)(F)CC2)c2cc(=O)n(C3CC3)cc12", "IC50, nM": 84.2}
{"compound": "C[C@@H](Nc1nnc(N2CCC(F)(F)CC2)c2cc(=O)n(C3(C)CC3)cc12)c1cccc(C(F)F)c1F", "IC50, nM": 22.4}
{"compound": "C[C@@H](Nc1nnc(N2CCN(C)CC2)c2cc(=O)n(C)cc12)c1cccc(C(F)F)c1F [Example 138, formate]", "IC50, nM": 10.7}
{"compound": "CC(C)N1CCN(c2nnc(N[C@H](C)c3cccc(C(F)F)c3F)c3cn(C4(C)CC4)c(=O)cc23)CC1", "IC50, nM": 4.6}
{"compound": "C[C@@H](Nc1nnc(N2CCN(C)CC2)c2cc(=O)n(C3(C)CC3)cc12)c1cccc(C(F)(F)F)c1 [Example 157, formate]", "IC50, nM": 5.1}
{"compound": "C[C@@H](Nc1nnc(N2CCC(F)(F)CC2)c2cc(=O)n(C3CC3)cc12)c1cccc(C(F)F)c1F", "IC50, nM": 27.2}

* * *

- assay.system: CYP3A4 (Homo sapiens, UniProt P08684)
- Construct: human liver microsomes were used as the CYP450 enzyme source; from tissue; host or cells: human liver microsomes
- Sequence (P08684 whole entry): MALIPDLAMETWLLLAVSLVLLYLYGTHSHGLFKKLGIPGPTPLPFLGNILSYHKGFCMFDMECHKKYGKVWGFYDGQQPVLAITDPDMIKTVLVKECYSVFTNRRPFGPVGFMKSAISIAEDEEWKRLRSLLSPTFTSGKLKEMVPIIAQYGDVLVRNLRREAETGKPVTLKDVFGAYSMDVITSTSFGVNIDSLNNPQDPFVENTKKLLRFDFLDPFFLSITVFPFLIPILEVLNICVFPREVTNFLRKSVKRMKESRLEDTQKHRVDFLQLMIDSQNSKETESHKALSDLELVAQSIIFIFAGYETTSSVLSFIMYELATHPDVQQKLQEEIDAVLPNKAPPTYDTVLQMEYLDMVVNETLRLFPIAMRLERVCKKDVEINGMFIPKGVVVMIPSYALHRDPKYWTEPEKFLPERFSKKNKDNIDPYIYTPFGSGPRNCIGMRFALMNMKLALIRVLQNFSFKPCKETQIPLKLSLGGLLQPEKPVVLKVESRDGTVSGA
- experiment.notes: Inhibition of hepatic drug-metabolizing enzymes in human liver microsomes (substrates midazolam and testosterone)
- Format: in vitro ADME
- condition.label: Inhibitory activity on drug-metabolizing enzymes (IC50, µM) CYP3A4-T, substrate testosterone
metric: IC50 (µM)

{"compound": "Cc1c(C#N)cccc1[C@@H](C)Nc1nnc(C)c2cnc(N3CCOCC3)cc12 [MRTX0902, reference compound]", "censoring.operator": "=", "measurement": 8.75}
{"compound": "C[C@@H](Nc1nnc(N2CCN(C)CC2)c2cc(=O)n(C3CC3)cc12)c1cccc(C(F)F)c1F", "censoring.operator": ">", "measurement": 10}
